Test system: K4 kissing-loop RNA reporter;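 also: bound reporter read as fluorescence of individual clusters on recovered sequencing chips by microscopy, with normalized cluster intensities fitted with a binding model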
METHOD_SUMMARY: apparent KD of K4 kissing-loop reporter; higher = weaker reporter binding
ASSAY_SETUP: Eterna round: R107; input ligand: none
ENDPOINT_LABEL: apparent KD of K4 kissing-loop reporter
Output should be the measured figure followed by the unit it is expressed in.

[[record]]
biopolymer_sequence = "UGCACGGGCUCGGCCGCCACUCCAGCGGGUCGCAAGGUCCGCUACUGAGUGAUGUUCGGUUGGAGGAGGACCGGGAGCCCGUGCG [#2 Exclusion - Tryptophan B Attempt #31 (HarryS)]"
system_name = "K4 kissing-loop RNA reporter"
result = "133 nM"

[[record]]
biopolymer_sequence = "AAACGCUGGUGAAUAACACUAGCGAAUUCGCGAGGACCGGUACGGCCGCCACUCGCUAACUGCGAGUGAUGUUCGAUAAUAAAAU [Mat - Mod of OpenEnded 3 - D2]"
system_name = "K4 kissing-loop RNA reporter"
result = "154 nM"


Now for a further sequence.
// apparent KD of K4 kissing-loop reporter lookup, key: AGCUGUGGCAGAAGGAGCGACAGUUAUUCUGAUAGUACUCUGAGUGAUGUUCAGAACGACUGUCAGGUAGGUCGCUGUCACAGCU [#01 K4 Arginine B Exclusion] 175 nM
